# Test system: M14
# measurementDescription: NCI tumour cell line growth inhibition, 48 h
Activity calls are given as the source filed them. Cut-off read from the data, not from the text of the source: active = GI50 up to about 1.1 µM and inactive = higher.
Possible outcomes: y for active, n for inactive

compound: CC(C)(CN1C(=O)C(Cl)=C(Cl)C1=O)CN1C(=O)C(Cl)=C(Cl)C1=O
assignedClass: n
//
compound: O=C(c1ccccc1)C1C(C(=O)c2ccccc2)C(c2ccccc2)N(c2ccccc2)C1c1ccccc1 (stereo unspecified)
assignedClass: n
//
compound: O=C(NCC1Nc2ccncc2S(=O)(=O)N1)c1ccc(Br)cc1 (stereo unspecified)
assignedClass: n
//
compound: NCCN(CCN)/[N+]([O-])=N/O
assignedClass: n
//
compound: c1ccc2c(c1)cc1n2CC2CN=NC12 (stereo unspecified)
assignedClass: n
//
compound: C/C(=N\NC(=S)N1CCN(c2ccccn2)CC1)c1cccc(C)n1
assignedClass: y

* * *

# System: RPMI-8226
# measurementDescription: NCI tumour cell line growth inhibition, 48 h
Calls of active or inactive are those of the source. Cut-off read from the data, not from the text of the source: active = GI50 up to about 1.1 µM and inactive = higher.
Possible outcomes: 1 (active), 0 (inactive)

molecule: COC(=O)CCSC1=CC(=O)c2nc3ccccc3c3ccnc1c23
assignedClass: 0
--
molecule: Cc1ccc(-c2n[nH]c(=O)n2/N=C\c2ccccc2O)cc1
assignedClass: 0
--
molecule: Cc1nc(N)c(N2CCN(S(N)(=O)=O)CC2)c(O)n1
assignedClass: 0
--
molecule: CCSC(=O)C1(C)OC2CCCCC2C1=O (stereo not given)
assignedClass: 0
--
molecule: O=C(O)c1cc2c3c(c1)[C@H]1C=CC[C@H]1CN3CC1CC=CC21 (stereo not given in full)
assignedClass: 0
--
molecule: COc1cccc2c1C(=O)c1c(O)c3c(c(O)c1C2=O)C[C@@](O)(/C(C)=N/NC(=O)c1ccccc1)C[C@@H]3OC1CC(N)C(O)C(C)O1 (stereo not given in full)
assignedClass: 1
--
molecule: Cc1c(O)nc(-n2[nH]c3c(c2=O)CCCC3)[nH]c1=O
assignedClass: 0
--
molecule: CC(=O)N1CCC(=O)/C(=C/c2ccccc2)C1
assignedClass: 0
--
molecule: COC(=O)CC1(CNC(=O)OCc2ccccc2)OCCO1
assignedClass: 0
--
molecule: CO/N=C1\CC(C)N2C(=O)C(C(C)C)NC(=O)C(NC(=O)c3c4nc5c(C(=O)NC6C(=O)NC(C(C)C)C(=O)N7C(C)CC(O)C7C(=O)N(C)CC(=O)N(C)C(C(C)C)C(=O)OC6C)ccc(C)c5oc-4c(C)c(=O)c3N)C(CO)OC(=O)C(C)N(C)C(=O)CN(C)C(=O)C12 (stereo not given)
assignedClass: 1
--
molecule: c1ccc2c(CN3CCC(C4CCN(Cc5cccc6ccccc56)CC4)CC3)cccc2c1
assignedClass: 0
--
molecule: O=C(CCc1ccc(O)c(O)c1)NCCc1ccccc1
assignedClass: 0
--
molecule: O=C(c1ccc(O)cc1)C1c2c3c(cc(O)c2C(c2ccc(O)cc2)C1c1cc(O)cc(O)c1)OC(c1ccc(O)cc1)C3c1cc2c(cc1O)OC(c1ccc(O)cc1)C2c1cc(O)cc(O)c1 (stereo not given)
assignedClass: 0
--
molecule: CC(c1cccc2ccccc12)/[N+]([O-])=C/c1ccccc1 (stereo not given)
assignedClass: 0
--
molecule: Oc1ccc2ccccc2c1/C=N/Cc1c(O)ccc2ccccc12
assignedClass: 0
--
molecule: O=C(c1nc2ccccc2nc1O)C(O)c1ccco1 (stereo not given)
assignedClass: 0
--
molecule: C=C1C(=O)OC2C1C(OC(=O)/C(C)=C\C)CC1(CO1)C1C(O)C=C(C)C21O (stereo not given)
assignedClass: 0
--
molecule: CCOC(=O)C(=CNc1ccc(S(N)(=O)=O)cc1)C(=O)OCC
assignedClass: 0
--
molecule: COC(=O)/C(C#N)=C(/NCc1ccccc1)Nc1ccccc1
assignedClass: 0
--
molecule: N#Cc1cc2c(cc1C#N)/C(=N\c1cccc(N)n1)N/C2=N\c1cccc(N)n1
assignedClass: 0
--
molecule: CCCCCCCCCCC(C(=O)O)C1(C(=O)O)CCC(=O)O1 (stereo not given)
assignedClass: 0
--
molecule: CC1C[C@]2(C[C@@H](C)C(=O)O2)O[C@@H]2CC3(C)[C@@H]4CCC5C(C)(C)OC(=O)C[C@H]6OO[C@]4(CC[C@]3(C)C12)CC56O (stereo not given in full)
assignedClass: 0
--
molecule: CSc1nc(O)c(C#N)c(-c2ccccc2)n1
assignedClass: 0
--
molecule: Cc1cc(C)nc(SCCc2cccc[n+]2C)n1
assignedClass: 0
--
molecule: COc1ccc2nc(NC(=O)C(=O)C(C#N)c3ccc(Cl)c(Cl)c3)sc2c1 (stereo not given)
assignedClass: 0
--
molecule: Cc1cccc2c1Sc1ccccc1C2NC(=O)CCN(C)C (stereo not given)
assignedClass: 0
--
molecule: C=C1C(=O)C23CC1C[C@H](OC(C)=O)[C@H]2C1(C)C(OC(C)=O)C[C@H](O)C(C)(C)[C@H]1C(=O)[C@@H]3OC(C)=O (stereo not given in full)
assignedClass: 0
--
molecule: CC1(C)CC(=O)C2=C(C1)N(c1ccccc1)C1(O)C=CC(O)=C3C(=O)c4ccccc4C(=O)C321 (stereo not given)
assignedClass: 0
--
molecule: O=C(NCC1Nc2ccncc2S(=O)(=O)N1)c1ccc(Br)cc1 (stereo not given)
assignedClass: 0
--
molecule: O=C1C2=C(c3ccccc31)C(c1ccc(Cl)cc1)NC(S)=N2 (stereo not given)
assignedClass: 0
--
molecule: C[C@@H]1O[C@@H](O[C@H]2CC[C@]3(C=O)[C@H]4CC[C@]5(C)[C@@H](c6ccc(=O)oc6)CC[C@]5(O)[C@@H]4CC[C@]3(O)C2)[C@H](O)[C@H](O)[C@H]1O[C@@H]1O[C@H](CO)[C@@H](O)[C@H](O)[C@H]1O
assignedClass: 1
--
molecule: [N-]=[N+]=CC(=O)c1ccccc1C#CCCc1ccccc1
assignedClass: 0
--
molecule: Cc1cc(C(C)C)cc(=O)c(O)c1
assignedClass: 0
--
molecule: CC(=O)N(C(C)=O)c1ncc(-n2nc(-c3ccccc3)cc2-c2ccccc2)c(-c2ccccc2)n1
assignedClass: 0
--
molecule: Cn1cco/c1=N/c1ccc(Cl)c(Cl)c1
assignedClass: 0

* * *

# System: A549
# measurementDescription: NCI tumour cell line growth inhibition, 48 h
Calls of active or inactive are those of the source. Rule as the data show it: active = GI50 up to about 1.1 µM and inactive = higher.
Possible outcomes: label 1 for active, label 0 for inactive

molecule: CCC1CN2CCc3cc(OC)c(OC)cc3C2CC1CC1c2cc(OC)c(OC)cc2CCN1C(=O)CNC(=O)OC(C)(C)C (stereo not given)
assignedClass: label 0
--
molecule: CCCOc1cc2c(cc1O)CC[C@@H]1[C@@H]2CC[C@]2(C)[C@@H](O)CC[C@@H]12
assignedClass: label 0
--
molecule: CCN1CCC(O)(/C=C/c2ccc(Cl)c(Cl)c2)C(C(=O)/C=C/c2ccc(Cl)c(Cl)c2)C1 (stereo not given)
assignedClass: label 1
--
molecule: COC(=O)c1c(-c2ccccc2)c2sc3ccccc3n2c1N
assignedClass: label 0
--
molecule: Nc1ccc2[nH]c3c(-c4ccccc4)nccc3c2c1
assignedClass: label 0

* * *

Parameter GI50: see the listing below.
# Test system: SW-620
# measurementDescription: NCI tumour cell line growth inhibition, 48 h
The source made the active and inactive calls. No stated cut-off is given here; in the data, active = GI50 up to about 1.1 µM and inactive = higher.

molecule: Cn1c(-c2cccs2)cc(-c2ccsc2)c1-c1ccsc1
GI50: > 100 µM (inactive)
//
molecule: CNC1C(O)C(OC2C(N)CC(N)C(OC3OC(CN)=CCC3N)C2O)OCC1(C)O (stereo not given)
GI50: > 100 µM (inactive)
//
molecule: CCCCCCCCC[n+]1cccc(C2C(C(=O)OCC)=C(C)NC(C)=C2C(=O)OCC)c1
GI50: 4.26 µM (inactive)
//
molecule: ClCCN(CCCl)c1ccc(/C=N/Nc2ccnc3ccccc23)cc1
GI50: 1.87 µM (inactive)
//
molecule: O=C(CCC(=O)Nc1ccccc1C(F)(F)F)N/N=C1\C(=N\NC(=O)CCC(=O)Nc2ccccc2C(F)(F)F)C(c2ccc3c(c2)OCO3)Oc2ccccc21 (stereo not given)
GI50: 6.22 µM (inactive)
//
molecule: CCCCCCCNC(P(=O)(O)O)P(=O)(O)O
GI50: > 100 µM (inactive)
//
molecule: CS(=O)(=O)OCC1=C(COS(C)(=O)=O)C(=O)c2c(O)ccc(O)c2C1=O
GI50: > 100 µM (inactive)
//
molecule: NNC(=O)Nc1nc2ccc(NN)cc2[nH]1
GI50: 23.8 µM (inactive)
//
molecule: CCO/C=N\C1=C(C#N)SC2=N/C(=C\c3ccco3)C(=O)N21
GI50: > 100 µM (inactive)
//
molecule: CN(NC(=O)/C(=C/c1ccc(O)cc1)NC(=O)c1ccccc1)c1ccnc2cc(Cl)ccc12
GI50: 20.8 µM (inactive)

* * *

# System: MCF7
# measurementDescription: NCI tumour cell line growth inhibition, 48 h
Activity calls are given as the source filed them. Rule as the data show it: active = GI50 up to about 1.1 µM and inactive = higher.
Possible outcomes: true = active, false = inactive

compound: CC(C)=Cc1cc(CCC/C(C)=C/Cc2c(O)cc(C)c(C(=O)O)c2O)co1
assignedClass: false
//
compound: COC(=O)CC1(CNC(=O)OCc2ccccc2)OCCO1
assignedClass: false
//
compound: C=C1CC(c2ccc(OCCCN3C(=O)c4ccccc4C3=O)cc2)OC1=O (centres undefined)
assignedClass: false
//
compound: CNC1C(O)C(OC2C(N)CC(N)C(OC3OC(CN)=CCC3N)C2O)OCC1(C)O (centres undefined)
assignedClass: false
//
compound: CCOC(=O)C(=CNc1ccc(S(N)(=O)=O)cc1)C(=O)OCC
assignedClass: false
//
compound: CCOC(=O)c1cc(C2CCN(CC(C)CC)C2=S)c(-c2cc(C)no2)[nH]1 (centres undefined)
assignedClass: false
//
compound: Cc1n[nH]c(=O)n1N1C(=O)CCCC1=O
assignedClass: false
//
compound: O=NN(CCCl)C(=O)NC1CCSc2ccccc21 (centres undefined)
assignedClass: false
//
compound: CC1CC/C(=C\c2ccc(F)cc2)C2=C1C(c1ccc(F)cc1)N1C(=O)CSC1=N2 (centres undefined)
assignedClass: false
//
compound: C[C@@H]1O[C@@H](O[C@H]2CC[C@]3(C=O)[C@H]4CC[C@]5(C)[C@@H](c6ccc(=O)oc6)CC[C@]5(O)[C@@H]4CC[C@]3(O)C2)[C@H](O)[C@H](O)[C@H]1O[C@@H]1O[C@H](CO)[C@@H](O)[C@H](O)[C@H]1O
assignedClass: true
//
compound: Cc1nc2c(c(N3CCN(C)CC3)n1)Cc1ccccc1-2
assignedClass: false
//
compound: CC1CNC(NS(=O)(=O)c2cc(C(=O)Nc3ccc(F)cc3)c(Cl)cc2S)=NN1 (centres undefined)
assignedClass: false
//
compound: NS(=O)(=O)c1nnc(NS(=O)(=O)C(F)(F)F)s1
assignedClass: false
//
compound: CCN(CC)C1=Nc2ccccc2-n2ccnc2C1
assignedClass: false
//
compound: Cc1ccc(-c2n[nH]c(CC#N)n2)cc1
assignedClass: false
//
compound: O=C(O)c1nc2ccc(C(F)(F)F)cc2[nH]c1=O
assignedClass: false
//
compound: Cn1c2ccccc2c2c(-c3ccccc3)cc3c(c21)C(=O)C=CC3=O
assignedClass: false
//
compound: Oc1ccc2ccccc2c1/C=N/Cc1c(O)ccc2ccccc12
assignedClass: false
//
compound: O=C1/C(=C/c2ccccc2O)N=C(c2ccccc2)N1c1nc2ccccc2s1
assignedClass: false
//
compound: Cc1ccc2c3c4c(ccc13)C(C)(C)OC4=C(C(C)C)C2=O
assignedClass: false
//
compound: C=C1C(=O)OC2CC(C)C(C(O)CC(C)O)=CCC12 (centres undefined)
assignedClass: false
//
compound: COc1cc(/C=C2\CCC(C)c3c2nc(N)c(C#N)c3-c2cc(OC)c(OC)c(OC)c2)cc(OC)c1OC (centres undefined)
assignedClass: false
//
compound: Cc1ccc(S(=O)(=O)N2CCCN(S(=O)(=O)c3ccc(C)cc3)CCN(S(=O)(=O)c3ccc(C)cc3)CCCSCC2)cc1
assignedClass: false
//
compound: CCCCN1/C(=N/Nc2n[nH]c(=O)c3ccccc23)SCC1c1ccc(Cl)cc1 (centres undefined)
assignedClass: false
//
compound: CC(=O)OCC1OC(n2cc(F)c(=O)[nH]c2=O)C(NC(=O)OCc2ccccc2)C(OC(C)=O)C1OC(C)=O (centres undefined)
assignedClass: false
//
compound: CCC(=O)NCCc1c[nH]c2ccc(OC)cc12
assignedClass: false
//
compound: CC(C)CCNC(=O)C(CC(C)C)NC(=O)[C@H]1O[C@@H]1C(=O)O (some centres undefined)
assignedClass: false
//
compound: Cn1c(=O)c2c(nc3n(Cc4ccccc4)c(=O)c(Br)cn23)n(C)c1=O
assignedClass: false
//
compound: N#Cc1cc2c(cc1C#N)/C(=N\c1cccc(N)n1)N/C2=N\c1cccc(N)n1
assignedClass: false
//
compound: Cc1nn(-c2ccccc2)c(C)c1/C=N/N=C1\SCC(=O)N1c1ccccc1
assignedClass: false
//
compound: Cc1cc(NC(=O)NC(=O)c2ccccc2NC(=O)CN(C)C)ccc1Oc1ncc(Br)cn1
assignedClass: true
//
compound: CSc1nc(O)c(C#N)c(-c2ccccc2)n1
assignedClass: false
//
compound: N=C(Cc1ccccc1)NCC(=O)O
assignedClass: false
//
compound: CO/N=C1\CC(C)N2C(=O)C(C(C)C)NC(=O)C(NC(=O)c3c4nc5c(C(=O)NC6C(=O)NC(C(C)C)C(=O)N7C(C)CC(O)C7C(=O)N(C)CC(=O)N(C)C(C(C)C)C(=O)OC6C)ccc(C)c5oc-4c(C)c(=O)c3N)C(CO)OC(=O)C(C)N(C)C(=O)CN(C)C(=O)C12 (centres undefined)
assignedClass: true
//
compound: CN(C(=O)Cc1ccccc1)n1cnn(CC(=O)OC(C)(C)C)c1=S
assignedClass: false
//
compound: CCCCc1c(O)nc(Nc2nc3ccccc3[nH]2)[nH]c1=O
assignedClass: false
//
compound: O=C(O)c1ccc(OCc2ccccc2)c(Cl)c1
assignedClass: false
//
compound: CC1(C)S[C@@H]2[C@H](NC(=O)[C@H](N)c3ccccc3)C(=O)N2[C@H]1C(=O)O
assignedClass: false
//
compound: Cc1nc(C)c(N2CCN(C#N)CC2)c(O)n1
assignedClass: false

Reference for the values: ChEMBL document CHEMBL1201862
